meta.source: patent US20110190196A1

- assayedTarget: ATP-binding cassette transporter A1 (ABCA1) (UniProt P41233 1-2261, limits assumed)
- Sequence (P41233 whole entry): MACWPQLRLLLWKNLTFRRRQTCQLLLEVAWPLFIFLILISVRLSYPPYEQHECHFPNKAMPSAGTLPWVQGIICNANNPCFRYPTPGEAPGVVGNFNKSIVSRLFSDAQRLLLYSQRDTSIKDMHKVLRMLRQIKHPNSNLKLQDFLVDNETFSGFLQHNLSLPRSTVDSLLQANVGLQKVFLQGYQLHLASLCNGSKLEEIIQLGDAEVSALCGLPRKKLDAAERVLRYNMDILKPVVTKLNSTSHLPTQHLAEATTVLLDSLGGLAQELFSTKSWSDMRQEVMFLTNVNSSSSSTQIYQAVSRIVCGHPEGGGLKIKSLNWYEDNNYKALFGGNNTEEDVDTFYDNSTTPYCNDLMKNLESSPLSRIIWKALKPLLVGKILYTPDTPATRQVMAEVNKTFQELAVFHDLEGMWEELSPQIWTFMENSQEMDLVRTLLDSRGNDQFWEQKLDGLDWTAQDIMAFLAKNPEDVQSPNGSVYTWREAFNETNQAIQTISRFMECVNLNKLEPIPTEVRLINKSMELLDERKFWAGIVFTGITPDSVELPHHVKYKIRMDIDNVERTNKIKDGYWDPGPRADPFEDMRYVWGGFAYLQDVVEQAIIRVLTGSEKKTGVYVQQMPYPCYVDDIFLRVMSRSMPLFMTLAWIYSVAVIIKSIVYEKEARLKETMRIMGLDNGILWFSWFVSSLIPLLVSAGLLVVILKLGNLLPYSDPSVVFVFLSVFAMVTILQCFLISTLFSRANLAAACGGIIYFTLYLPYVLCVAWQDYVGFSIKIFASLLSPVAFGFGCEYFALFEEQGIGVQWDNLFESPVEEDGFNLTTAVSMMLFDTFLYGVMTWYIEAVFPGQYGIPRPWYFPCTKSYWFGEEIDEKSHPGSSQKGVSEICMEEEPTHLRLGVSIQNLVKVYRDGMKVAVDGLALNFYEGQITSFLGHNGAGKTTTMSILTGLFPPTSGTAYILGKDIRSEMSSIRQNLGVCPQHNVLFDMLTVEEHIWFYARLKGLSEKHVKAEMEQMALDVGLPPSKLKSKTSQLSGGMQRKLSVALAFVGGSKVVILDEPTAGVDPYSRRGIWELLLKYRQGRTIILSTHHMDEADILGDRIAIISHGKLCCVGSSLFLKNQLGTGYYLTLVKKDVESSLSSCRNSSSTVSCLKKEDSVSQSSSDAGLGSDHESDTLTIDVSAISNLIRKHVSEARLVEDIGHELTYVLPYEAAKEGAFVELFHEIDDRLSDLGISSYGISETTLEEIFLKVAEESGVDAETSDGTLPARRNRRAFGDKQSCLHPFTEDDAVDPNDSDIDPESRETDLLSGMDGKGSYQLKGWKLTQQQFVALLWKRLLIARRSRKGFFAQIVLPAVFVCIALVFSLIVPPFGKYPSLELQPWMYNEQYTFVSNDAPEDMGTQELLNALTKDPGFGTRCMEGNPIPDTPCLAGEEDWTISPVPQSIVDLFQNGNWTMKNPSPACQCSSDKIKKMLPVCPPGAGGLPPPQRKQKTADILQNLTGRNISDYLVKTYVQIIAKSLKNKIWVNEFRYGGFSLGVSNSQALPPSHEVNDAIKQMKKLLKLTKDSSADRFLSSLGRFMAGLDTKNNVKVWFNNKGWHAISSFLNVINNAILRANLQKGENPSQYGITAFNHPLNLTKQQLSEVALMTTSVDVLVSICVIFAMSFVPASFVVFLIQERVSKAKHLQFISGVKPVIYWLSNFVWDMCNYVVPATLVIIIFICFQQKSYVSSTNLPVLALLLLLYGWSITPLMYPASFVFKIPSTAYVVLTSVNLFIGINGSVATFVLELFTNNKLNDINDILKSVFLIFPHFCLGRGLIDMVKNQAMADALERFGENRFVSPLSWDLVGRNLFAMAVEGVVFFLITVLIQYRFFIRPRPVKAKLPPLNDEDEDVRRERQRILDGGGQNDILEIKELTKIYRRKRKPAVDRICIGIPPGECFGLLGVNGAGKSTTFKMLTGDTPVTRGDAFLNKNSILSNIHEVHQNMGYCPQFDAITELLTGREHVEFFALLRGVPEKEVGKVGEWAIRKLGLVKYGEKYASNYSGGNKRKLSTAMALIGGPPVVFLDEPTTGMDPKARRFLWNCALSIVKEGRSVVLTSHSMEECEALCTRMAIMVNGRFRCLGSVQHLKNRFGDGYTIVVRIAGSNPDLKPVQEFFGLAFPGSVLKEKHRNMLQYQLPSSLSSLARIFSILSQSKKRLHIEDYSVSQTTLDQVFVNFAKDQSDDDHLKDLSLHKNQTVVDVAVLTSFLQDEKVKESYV
- experimentNotes: cell-based or functional assay
readoutLabel: % cholesterol efflux/4 hours at 0.1 µg/ml (%)

A = DLRDKLDAWFDLFRDFLDRF [N1154-3]
B = ELRDKLEAWFDLFREFLERF [N1154-2]
Task: For A and B , which recorded % cholesterol efflux/4 hours at 0.1 µg/ml is lower? Provide the label of your selected option as the answer.
Output: A

I = DLRDRLDAWFDLFRDFLDRF [N1154-5]
II = ELRERLEAWFELFREFLERF [N1154-1]
Task: API: POST /compare with I and II ; response names the item with higher % cholesterol efflux/4 hours at 0.1 µg/ml. Use the label to indicate which entry you chose.
Output: II
